assay: physchem; conditions: 25 °C, pH 7, aqueous with cosolvent or surfactant or cyclodextrin, thermodynamic from solid
property-name: solubility at 10 min

Illustrative cases are given below, each with its answer.
CC(C)C[C@H](N)C(=O)O [Leucine, reference compound] : ~90 mM
CC[C@H](C)[C@H](N)C(=O)O [Isoleucine, reference compound] : ~105 mM
CCC(C)C(=O)C(=O)[O-].[Na+] (stereo not shown) [keto Ile, 3-Methyl-2-oxopentanoic acid sodium salt] : ≥ 635 mM

Please turn your attention to the following entry.
Given CC(C)CC(=O)C(=O)[O-].[Na+] [keto Leu, 4-Methyl-2-oxopentanoic acid sodium salt] , state its recorded solubility at 10 min. 240 mM

###

test: Solubility in water at 25° C. (saturated solution, residual mass after infrared drying); format: physicochemical; details: water, 25° C.
// reported Solubility 25° C. in g/kg (corresponding keto acid) for each item listed
Answer format: numeric, g/kg implied, no suffix.

O=C([O-])C(=O)Cc1ccccc1.[Na+] [phenylpyruvate, Phenylpyruvic acid sodium salt] : 72
CC(C)C(=O)C(=O)[O-].[Na+] [keto Val, α-Ketoisovaleric acid sodium salt] : 362
CCC(C)C(=O)C(=O)[O-].[Na+] (centres unmarked) [keto Ile, 3-Methyl-2-oxopentanoic acid sodium salt] : 480

Please turn your attention to the following entry.
Given CC(C)CC(=O)C(=O)[O-].[Na+] [keto Leu, 4-Methyl-2-oxopentanoic acid sodium salt] , state its recorded Solubility 25° C. in g/kg (corresponding keto acid). 313.7
